Each item that follows carries a reported %Inh.
- Test system: ASK1
- Construct: gene MAP3K5
- CONDITION: concentration: 1 μM, replicates: in singlicate; n = 1
Value expressed in %; do not type the unit.

Consider the following illustrative entries.
CC(C)(C)c1ccc(C(=O)Nc2cn3cc(-c4cccnc4)ccc3n2)cc1 = 94.9
Cc1ccc(NC(=O)Nc2cc(C(C)(C)C)nn2-c2ccccc2)cc1 = 1
C[C@@H]1CCCCN1c1cc(-c2ccc3c(N)n[nH]c3c2)nc(N)n1 = 0
COc1ccc(C2=C(Nc3cccc(C(=O)O)c3)C(=O)NC2=O)cc1 = 9

IN: What value of %Inh has been reported for the following compound? CN(C)CCN(C)C(=O)c1cc(-c2ccncc2)c(-c2ccc(Cl)c(O)c2)o1.Cl.Cl
OUT: 18

* * *

Each item that follows carries a reported %Inh.
- Test system: ACVR1B
- CONDITION: concentration: 1 μM, replicates: in singlicate; n = 1
Value expressed in %; do not type the unit.

Consider the following illustrative entries.
Cc1ccccc1-n1cnc2c(N)ncnc21 = 0
CCn1c(-c2cccnc2O)nc2cnccc21 = 0
Cc1cccc(-c2nc(Nc3ccncc3)c3ccccc3n2)n1 = 94.3
O=C1NC(=O)C(N2CCc3ccccc32)=C1c1ccccc1Cl = 35

IN: What value of %Inh has been reported for the following compound? COC(=O)c1c(-c2ccccc2)c2cc(C(=O)O)ccc2c(=O)n1Cc1ccccc1
OUT: 9

IN: Next entry: Cn1ccc2ncnc(Oc3ccc(NC(=O)Nc4ccccc4)cc3)c21
OUT: 0

IN: Next entry: CS(=O)(=O)c1ccc(-c2c(-c3ncn[nH]3)sc(N3CCOCC3)c2C#N)cc1
OUT: 14

IN: Next entry: Cl.O=C(Nc1cccc(-c2nn3ncccc3c2-c2ccnc(Nc3cccnc3)n2)c1)c1c(F)cccc1F
OUT: 0

IN: Next entry: COc1ccc(C2=C(Nc3cccc(C(=O)O)c3)C(=O)NC2=O)cc1
OUT: 7

IN: Next entry: CCCc1ccc(S(=O)(=O)NC2CCN(c3ccnc(Nc4ccc(F)cc4)n3)C2)cc1 (stereo not shown)
OUT: 0

IN: Next entry: Cc1ccc(-c2cc(-c3c[nH]nc3-c3ccccn3)ccn2)cc1
OUT: 65

IN: Next entry: Cc1cc(N2Cc3ccccc3C2)nc(Nc2ccc(S(=O)(=O)N3CCOCC3)cc2)n1.Cl
OUT: 0

IN: Next entry: CC(C)(C)c1ccc(C(=O)Nc2cn3cc(Cl)ccc3n2)cc1
OUT: 0

IN: Next entry: Cc1ccc(NC(=O)Nc2cc(C(C)(C)C)nn2-c2ccccc2)cc1
OUT: 0

IN: Next entry: CN(C)CCN(C)C(=O)c1cc(-c2ccncc2)c(-c2ccc(Cl)c(O)c2)o1.Cl.Cl
OUT: 0

IN: Next entry: Cl.c1ccc(-c2n[nH]cc2-c2ccnc(-c3ccc(CN4CCOCC4)cc3)c2)nc1
OUT: 80

IN: Next entry: Cn1cncc1-c1ccc2ncnc(Nc3ccc(OCc4ccccc4)cc3)c2c1
OUT: 2

IN: Next entry: COc1cc2nccc(Nc3ccc(NC(=O)c4ccc(C)cc4)c(O)c3)c2cc1OC.Cl
OUT: 13

IN: Next entry: COc1cc2ncnc(Nc3ccc4nc(-c5ccccc5)[nH]c4c3)c2cc1OC.Cl
OUT: 0

IN: Next entry: Nc1nc(-c2nccs2)c(-c2ccnc3ccccc23)s1
OUT: 14

IN: Next entry: Cl.Oc1ccc(-c2nc(-c3ccccc3)[nH]c2-c2ccncc2)cc1
OUT: 0

* * *

- Tested on: PIK3CB
- CONDITION: concentration: 1 μM, replicates: in singlicate; n = 1
OUTCOME MEASURE: %Inh (%)
Value expressed in %; do not type the unit.

Consider the following illustrative entries.
Cc1c(Cn2ccn3c(=O)cc(N4CCOCC4)nc23)cccc1C(F)(F)F = 100
CCn1c(-c2ccccn2)nc2cnccc21 = 18
CS(=O)(=O)c1ccc(-c2nc3n(c2-c2ccncc2)CCC3)cc1 = 0
Cc1ccc(C(=O)Nc2ccc(Nc3ccnc4cc(-c5ccccn5)ccc34)cc2O)cc1.Cl = 0
COc1ccc(CNC(=O)NC2CCN(c3ccnc(Nc4cc(OC)c(OC)c(OC)c4)n3)C2)cc1 (stereo not drawn) = 0
CCCc1ccc(S(=O)(=O)NC2CCN(c3ccnc(Nc4ccc(F)cc4)n3)C2)cc1 (stereo not drawn) = 0
Cn1ccc2ncnc(Oc3ccc(Nc4nc5ccccc5[nH]4)cc3)c21 = 0
COc1cc(Nc2nccc(N3CCC(NC(=O)Nc4cc(C)ccc4C)C3)n2)cc(OC)c1OC (stereo not drawn) = 0
CS(=O)(=O)c1ccc(-c2c(-c3ncn[nH]3)sc(N3CCOCC3)c2C#N)cc1 = 97.3
COc1cccc(NC(=O)NC2CCN(c3ccnc(Nc4ccc(F)cc4)n3)C2)c1 (stereo not drawn) = 0

IN: What value of %Inh has been reported for the following compound? O=c1cc(N2CCOCC2)nc2n(Cc3cccc(Cl)c3Cl)ccn12
OUT: 98.7

IN: Next entry: Cc1cc(NCC(c2ccccc2)c2ccccc2)nc(NCc2ccc(C(F)(F)F)cc2)n1
OUT: 0

* * *

Each item that follows carries a reported %Inh.
- Tested on: JNK3
- Construct: gene MAPK10
- CONDITION: concentration: 1 μM, replicates: in singlicate; n = 1
Could you kindly put the unit after your number?

Consider the following illustrative entries.
O=C(Nc1n[nH]c2cc(-c3cccc(F)c3F)ccc12)C1CC1 [SB-733894] = 1%
NC(=O)c1nnc2ccccc2c1N = 13%

IN: What value of %Inh has been reported for the following molecule? Cc1c(Cn2ccn3c(=O)cc(N4CCOCC4)nc23)cccc1C(F)(F)F [GSK2289044]
OUT: 3%

IN: Next entry: Cc1ccc(NC(=O)Nc2cccc(Cl)c2)cc1-c1ccc(C(=O)Nc2ccncc2)cc1 [GSK1398468]
OUT: 0%

IN: Next entry: CS(=O)(=O)c1ccc(-c2nc3n(c2-c2ccncc2)CCC3)cc1 [SKF-105942]
OUT: 0%

IN: Next entry: Cc1cccc(-c2nc(Nc3ccncc3)c3ccccc3n2)n1 [GW855857]
OUT: 21%

* * *

- Test system: YSK1
- Construct: gene STK25
- CONDITION: concentration: 1 μM, replicates: in singlicate; n = 1
Each item that follows carries a reported %Inh.
Value expressed in %; do not type the unit.

Consider the following illustrative entries.
COc1cc2ncnc(Nc3ccc4nc(-c5ccccc5)[nH]c4c3)c2cc1OC.Cl [GW282450] = 6
COc1cccc(-c2cc(-c3c[nH]nc3-c3ccccn3)ccn2)c1 [GW680338] = 0
Cc1ccc(C(=O)Nc2ccc(Nc3ccnc4cc(-c5ccccn5)ccc34)cc2O)cc1.Cl [GW440146] = 0
O=C(Nc1n[nH]c2nc(-c3nccs3)c(Br)cc12)C1CC1 [SB-742251] = 9
Cl.c1ccc(-c2n[nH]cc2-c2ccnc(-c3ccc(CN4CCOCC4)cc3)c2)nc1 [GW776245] = 0
COc1ccc(C2=C(Nc3cccc(C(=O)O)c3)C(=O)NC2=O)cc1 [SB-390765] = 0
CC(C)(C)c1ccc(C(=O)Nc2cn3cc(-c4cccnc4)ccc3n2)cc1 = 1
Cc1cccc(-c2nc(-c3ccc(S(C)(=O)=O)cc3)sc2-c2ccnc(NCCc3ccccc3)c2)c1 = 11
O=C(Nc1n[nH]c2cc(-c3cccc(F)c3F)ccc12)C1CC1 [SB-733894] = 0
COc1ccccc1CNC(=O)c1cc(C(=O)c2ccccc2C)c[nH]1 [GSK364507] = 0

IN: What value of %Inh has been reported for the following compound? Clc1cc(Cl)cc(Nc2ccnc(Nc3cc(Cl)cc(Cl)c3)n2)c1 [GSK175726]
OUT: 3

IN: Next entry: CS(=O)(=O)c1ccc(-c2nc3n(c2-c2ccncc2)CCC3)cc1 [SKF-105942]
OUT: 5

IN: Next entry: Cc1c(O)cccc1Nc1ccnc2ccc(C(F)(F)F)cc12.Cl [GW466413]
OUT: 0

IN: Next entry: Cc1cc(-c2ccc3c(c2)CC[C@@H](N[C@@H](C)c2ccccc2)C3)cnc1N.Cl [GW412617]
OUT: 0

IN: Next entry: COc1cc2ncn(-c3cc(OCC4CCCO4)c(C(N)=O)s3)c2cc1OC (stereo not shown) [GSK204607]
OUT: 22

* * *

- System: LYN
OUTCOME MEASURE: Kd

IN: Checklist item: Kd tested on LYN, entry O=c1cc(N2CCOCC2)nc2n(Cc3cccc(Cl)c3Cl)ccn12 [GSK2286295] , value?;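 note: kd values determined as follow-up on hits from a single-replicate KINOMEscan panel screen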
OUT: > 10 µM

* * *

Each item that follows carries a reported %Inh.
- Test system: PDGFRA
- CONDITION: concentration: 1 μM, replicates: in singlicate; n = 1
Value expressed in %; do not type the unit.

Fc1cc(Cl)ccc1Nc1ccnc2cc(-c3ccc(CN4CCCCC4)o3)ccc12 = 65
Cc1c(O)cccc1Nc1ccnc2ccc(C(F)(F)F)cc12.Cl = 0

IN: What value of %Inh has been reported for the following compound? CCn1c(-c2cccnc2O)nc2cnccc21
OUT: 0

IN: Next entry: Cc1ccccc1-n1cnc2c(N)ncnc21
OUT: 0

IN: Next entry: Cn1ccc2ncnc(Oc3ccc(Nc4nc5ccccc5[nH]4)cc3)c21
OUT: 8

IN: Next entry: CS(=O)(=O)c1ccc(-c2c(-c3ncn[nH]3)sc(N3CCOCC3)c2C#N)cc1
OUT: 6

IN: Next entry: CC(=O)Nc1nc2cnc(Nc3cc(NC(=O)c4cccc(CCC#N)c4)ccc3C)nc2s1
OUT: 94.3

IN: Next entry: NC(=O)c1nnc2ccccc2c1N
OUT: 12

IN: Next entry: CN1C(=O)C(Nc2ccc(Cl)c(C(=O)O)c2)=C(c2ccc(Cl)cc2)C1=O
OUT: 27

IN: Next entry: Cl.Oc1ccc(-c2nc(-c3ccccc3)[nH]c2-c2ccncc2)cc1
OUT: 0

These entries and their values trace back to paper PMC5540273.
